Where do the numbers come from? From ChEMBL document CHEMBL4033718.

Collected Activity values appear next to each entry.
# Organism: Homo sapiens
# test details: Inhibition of human serine racemase C2D2 mutant assessed as remaining enzyme activity by measuring D-serine production using L-serine as substrate at 1 mM incubated for > 8 hrs
Answer format: numeric, % implied, no suffix.

Some compounds with known Activity results, for comparison:
{"test smiles": "O=C(O)CC(=O)O", "scale unit": "%", "Activity": 63}
{"test smiles": "Cc1ccc(S(=O)(=O)Nc2ccccc2NC(=O)Nc2ccc(Cl)c(Cl)c2)cc1", "scale unit": "%", "Activity": 77}
{"test smiles": "O=C(Cc1ccc(F)cc1)NNC(=S)NC(=O)Cc1ccccc1", "scale unit": "%", "Activity": 62}
{"test smiles": "COc1cccc(OC)c1/C=C/C(=O)NC(=S)NNC(=O)Cc1cccs1", "scale unit": "%", "Activity": 27}
{"test smiles": "COc1cccc(OC)c1/C=C/C(=O)NC(=S)NNC(=O)c1cccs1", "scale unit": "%", "Activity": 31}
{"test smiles": "Cc1ccc(/C=C/S(=O)(=O)NCC(=O)Nc2ccc(OCc3ccccc3)cc2)cc1", "scale unit": "%", "Activity": 41}
{"test smiles": "O=C(/C=C/c1ccc(F)cc1)NC(=S)NNC(=O)c1cccs1", "scale unit": "%", "Activity": 46}
{"test smiles": "O=C(/C=C/c1ccc(F)cc1)NC(=S)NNC(=O)Cc1cccs1", "scale unit": "%", "Activity": 22}

May I ask what Activity has been recorded for `O=C(/C=C/c1cc(Br)cc(Br)c1)NC(=S)NNC(=O)Cc1ccc(F)cc1` ?
54

May I ask what Activity has been recorded for `O=C(/C=C/c1cc(Br)cc(Br)c1)NC(=S)NNC(=O)CCc1ccccc1` ?
44

May I ask what Activity has been recorded for `O=C(Cc1c(F)cccc1F)NNC(=S)NC(=O)Cc1ccccc1` ?
61

###

Collected Activity values appear next to each entry.
# Species: Homo sapiens
# test details: Inhibition of human serine racemase C2D2 mutant assessed as remaining enzyme activity by measuring D-serine production using L-serine as substrate at 1 mM incubated for > 8 hrs
Answer format: numeric, % implied, no suffix.

Some compounds with known Activity results, for comparison:
{"test smiles": "Cc1cccc(CC(=O)NNC(=S)NC(=O)Cc2ccccc2)c1", "Activity (%)": 53}
{"test smiles": "COc1cccc(OC)c1/C=C/C(=O)NC(=S)NNC(=O)Cc1ccccc1", "Activity (%)": 32}
{"test smiles": "O=C(/C=C/c1c(F)cc(F)cc1F)NC(=S)NNC(=O)Cc1ccccc1", "Activity (%)": 38}
{"test smiles": "O=C(/C=C/c1c(F)cc(F)cc1F)NC(=S)NNC(=O)Cc1cccs1", "Activity (%)": 39}
{"test smiles": "Cc1ccc(/C=C/C(=O)NC(=S)NNC(=O)Cc2cccs2)cc1", "Activity (%)": 24}

May I ask what Activity has been recorded for `O=C(/C=C/c1cc(Br)cc(Br)c1)NC(=S)NNC(=O)Cc1ccccc1` ?
20

###

# test details: Inhibition of human serine racemase C2D2 mutant assessed as remaining enzyme activity by measuring D-serine production using L-serine as substrate incubated for > 8 hrs
Collected IC50 values appear next to each entry.
Answer format: numeric, µM implied, no suffix.

Some compounds with known IC50 results, for comparison:
{"test smiles": "Cc1ccc(S(=O)(=O)Nc2ccccc2NC(=O)Nc2ccc(Cl)c(Cl)c2)cc1", "measured endpoint": "IC50", "numeric readout": 280}
{"test smiles": "O=C(O)CC(=O)O", "measured endpoint": "IC50", "numeric readout": 770}
{"test smiles": "Cc1ccc(/C=C/S(=O)(=O)NCC(=O)Nc2ccc(OCc3ccccc3)cc2)cc1", "measured endpoint": "IC50", "numeric readout": 270}

Here's the next entry for you.
May I ask what IC50 has been recorded for `O=C(/C=C/c1cc(Br)cc(Br)c1)NC(=S)NNC(=O)Cc1ccccc1` ?
140

###

# Species: Homo sapiens
# test details: Inhibition of human serine racemase C2D2 mutant assessed as remaining enzyme activity by measuring D-serine production using L-serine as substrate at 1 mM incubated for > 8 hrs
Collected Activity values appear next to each entry.
Answer format: numeric, % implied, no suffix.

{"test smiles": "CC(C)c1ccc(/C=C/C(=O)NC(=S)NNC(=O)Cc2cccs2)cc1", "Activity (%)": 28}

May I ask what Activity has been recorded for `O=C(/C=C/c1ccc(F)cc1)NC(=S)NNC(=O)Cc1ccccc1` ?
45

May I ask what Activity has been recorded for `O=C(/C=C/c1ccc(C(F)(F)F)cc1)NC(=S)NNC(=O)Cc1cccs1` ?
44

May I ask what Activity has been recorded for `O=C(/C=C/c1ccc(Cl)cc1)NC(=S)NNC(=O)Cc1cccs1` ?
23

May I ask what Activity has been recorded for `O=C(Cc1ccc(F)cc1)NNC(=S)NC(=O)Cc1ccc(F)cc1` ?
49

May I ask what Activity has been recorded for `O=C(Cc1cccs1)NNC(=S)NC(=O)Cc1ccccc1` ?
61

May I ask what Activity has been recorded for `O=C(Cc1cc(F)cc(F)c1)NNC(=S)NC(=O)Cc1ccccc1` ?
55
